Item-by-item account of pEC50
# TARGET SYSTEM: human mAChR M1 (Homo sapiens)
# Sequence (P11229 whole entry): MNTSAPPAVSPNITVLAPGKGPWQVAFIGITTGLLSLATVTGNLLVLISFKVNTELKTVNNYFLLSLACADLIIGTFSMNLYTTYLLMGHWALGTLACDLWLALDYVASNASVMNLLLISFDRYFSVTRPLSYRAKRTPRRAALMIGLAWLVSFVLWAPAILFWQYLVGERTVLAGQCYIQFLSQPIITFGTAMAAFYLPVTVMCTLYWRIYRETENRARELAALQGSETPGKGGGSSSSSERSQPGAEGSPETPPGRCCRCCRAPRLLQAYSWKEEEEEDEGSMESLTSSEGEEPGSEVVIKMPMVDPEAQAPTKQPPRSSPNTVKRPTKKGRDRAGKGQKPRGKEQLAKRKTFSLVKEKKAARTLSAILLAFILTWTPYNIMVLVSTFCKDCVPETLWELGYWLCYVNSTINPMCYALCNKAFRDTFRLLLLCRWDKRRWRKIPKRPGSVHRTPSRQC
# ASSAY OVERVIEW: mAChR M1 cell-based functional assay (calcium mobilization), agonist activity upon compound addition alone
# ASSAY CONDITIONS: CHO-K1 cells expressing hM1; calcium mobilization upon compound addition, no acetylcholine
# Method: Chinese hamster ovary (CHO-K1) cells stably expressing rat (r)M1 were purchased from the American Type Culture Collection and cultured according to their indicated protocol. […] Calcium flux was measured using the Functional Drug Screening System (FDSS) 6000 (Hamamatsu Corporation, Tokyo, Japan) as an increase in the fluorescent static ratio. […] Agonist activity was analyzed as a concentration-dependent increase in calcium mobilization upon compound addition. […]
pEC50: −log10 of the molar value.
METRIC NAME: pEC50

MOLECULE	TARGET SYSTEM	OBSERVED
Cc1nc(-c2ccc(Cc3cc(C(=O)N[C@H]4CCCC[C@@H]4O)nc(-n4cccn4)c3C)cc2)co1 [Compound 48]	human mAChR M1 (Homo sapiens)	5.07
Cn1cc(-c2cc(Cc3ccc(-c4ccn(C)n4)cc3)cc(C(=O)N[C@H]3CCCC[C@@H]3O)n2)cn1 [Compound 40]	human mAChR M1 (Homo sapiens)	< 5.00
Cc1c(Cc2ccc(-c3ccn(C)n3)cc2)cc(C(=O)N[C@H]2CCCC[C@@H]2O)nc1-c1ccn(C)n1 [Compound 10]	human mAChR M1 (Homo sapiens)	≤ 5.00
Cc1c(Cc2ccc(-c3ccn(C)n3)cc2)cc(C(=O)NCC2CCOCC2)nc1-c1ccn(C)n1 [Compound 14]	human mAChR M1 (Homo sapiens)	< 5.00
Cn1cc(-c2ccc(Cc3cc(C(=O)N[C@H]4CCOC[C@@H]4O)nc(-n4cccn4)c3)cn2)cn1 [Compound 18]	human mAChR M1 (Homo sapiens)	≤ 5.00
Cn1cc(-c2ccc(Cc3cc(C(=O)NC4CCOCC4)nc(-c4ccn(C)n4)c3)cn2)cn1 [Compound 4]	human mAChR M1 (Homo sapiens)	< 5.00
Cn1ccc(-c2ccc(Cc3cc(C(=O)N[C@H]4CCC[C@@H]4O)nc(-c4ccn(C)n4)c3)cc2)n1 [Compound 38]	human mAChR M1 (Homo sapiens)	< 5.00
Cc1nc(-c2ccc(Cc3cc(C(=O)NC4CCOCC4)nc(-n4cccn4)c3C)cc2)co1 [Compound 51]	human mAChR M1 (Homo sapiens)	< 5.00
Cn1ccc(-c2ccc(Cc3cc(C(=O)N[C@H]4CCC[C@@H]4O)nc(-n4cccn4)c3)cc2)n1 [Compound 33]	human mAChR M1 (Homo sapiens)	< 5.00
Cc1c(Cc2ccc(-n3cccn3)cc2)cc(C(=O)NC2CCOCC2(C)C)nc1-c1ccn(C)n1 (centres unmarked) [Compound 64]	human mAChR M1 (Homo sapiens)	< 5.00
Cc1c(Cc2ccc(-c3ccn(C)n3)cc2)cc(C(=O)NC[C@@H]2CCCO2)nc1-c1ccn(C)n1 [Compound 15]	human mAChR M1 (Homo sapiens)	< 5.00
Cc1c(Cc2ccc(-n3cccn3)cc2)cc(C(=O)NC[C@H]2CCCO2)nc1-c1ccn(C)n1 [Compound 63]	human mAChR M1 (Homo sapiens)	< 5.00
Cc1c(Cc2ccc(-n3cccn3)cc2)cc(C(=O)N[C@H]2CC[C@@H]2O)nc1-c1ccn(C)n1 [Compound 60]	human mAChR M1 (Homo sapiens)	< 5.00
Cn1cc(-c2ccc(Cc3cc(C(=O)N[C@H]4CCCC[C@@H]4O)nc(-c4ccn(C)n4)c3)cn2)cn1 [Compound 3]	human mAChR M1 (Homo sapiens)	< 5.00
Cc1c(Cc2ccc(-c3cnn(C)c3)nc2)cc(C(=O)N[C@H]2CCC[C@@H]2O)nc1-n1cccn1 [Compound 53]	human mAChR M1 (Homo sapiens)	< 5.00
Cc1c(Cc2ccc(-c3ccn(C)n3)cc2)cc(C(=O)N[C@H]2CCC[C@@H]2O)nc1-c1ccn(C)n1 [Compound 12]	human mAChR M1 (Homo sapiens)	< 5.00
Cc1c(Cc2ccc(-c3cnn(C)c3)nc2)cc(C(=O)N[C@H]2CCCC[C@@H]2O)nc1-n1cccn1 [Compound 47]	human mAChR M1 (Homo sapiens)	5.04
Cn1ccc(-c2ccc(Cc3cc(C(=O)N[C@H]4CC[C@@H]4O)nc(-n4cccn4)c3)cc2)n1 [Compound 32]	human mAChR M1 (Homo sapiens)	< 5.00
Cc1c(Cc2ccc(-c3ccn(C)n3)nc2)cc(C(=O)N[C@H]2CCCC[C@@H]2O)nc1-n1cccn1 [Compound 46]	human mAChR M1 (Homo sapiens)	≤ 5.00
Cc1c(Cc2ccc(-n3cccn3)cc2)cc(C(=O)N[C@H]2CCCC[C@@H]2O)nc1-c1ccn(C)n1 [Compound 56]	human mAChR M1 (Homo sapiens)	< 5.00
